tested on: RWPE-1; assay: Cell viability assay (resazurin), dose-response; type: cell-based; settings: Homo sapiens, RWPE-1, 72 h, RWPE-1, day 3, resazurin
Assay endpoint: EC50 (mM)
Kindly provide the numeric value in mM only, without the unit symbol.

Please report EC50 for the following compound: CCCC(CCC)C(=O)O
8.97
